target: Alpha-glucosidase MAL32 (Saccharomyces cerevisiae (strain ATCC 204508 / S288c), UniProt P38158); assay: In Vitro α-Glucosidase Inhibitory Assay; conditions: pH 6.8
Sequence (P38158 whole entry): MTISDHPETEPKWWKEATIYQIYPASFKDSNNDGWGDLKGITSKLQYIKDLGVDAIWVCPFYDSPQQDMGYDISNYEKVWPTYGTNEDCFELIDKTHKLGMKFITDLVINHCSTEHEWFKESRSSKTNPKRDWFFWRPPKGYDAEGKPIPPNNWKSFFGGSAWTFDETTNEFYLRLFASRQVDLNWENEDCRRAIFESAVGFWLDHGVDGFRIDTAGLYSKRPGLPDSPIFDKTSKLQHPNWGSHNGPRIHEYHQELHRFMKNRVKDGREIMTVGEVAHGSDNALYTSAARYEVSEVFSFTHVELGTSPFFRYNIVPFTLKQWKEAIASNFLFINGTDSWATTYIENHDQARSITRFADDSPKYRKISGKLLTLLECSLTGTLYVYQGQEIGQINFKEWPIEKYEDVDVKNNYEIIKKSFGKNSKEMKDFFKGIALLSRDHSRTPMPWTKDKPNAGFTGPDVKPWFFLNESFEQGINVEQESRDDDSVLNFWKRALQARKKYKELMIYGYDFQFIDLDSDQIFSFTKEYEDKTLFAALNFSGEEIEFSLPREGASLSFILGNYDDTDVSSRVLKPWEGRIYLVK
reportedEndpoint: log10 IC50 (log10 of the value in µM)

>  <smilesStructure>
O=C(COc1ccc2ccc(=O)oc2c1)N/N=C1\C(=O)N(Cc2ccccc2)c2ccccc21

>  <log10 IC50>
1.15

$$$$
>  <smilesStructure>
O=C(COc1ccc2ccc(=O)oc2c1)N/N=C1\C(=O)N(Cc2ccccc2Cl)c2ccc(Br)cc21

>  <log10 IC50>
0.45

$$$$
>  <smilesStructure>
O=C(COc1ccc2ccc(=O)oc2c1)N/N=C1\C(=O)N(Cc2ccccc2Cl)c2ccccc21

>  <log10 IC50>
0.86

$$$$
>  <smilesStructure>
O=C(COc1ccc2ccc(=O)oc2c1)N/N=C1\C(=O)Nc2ccc(Cl)cc21

>  <log10 IC50>
2.18

$$$$
>  <smilesStructure>
O=C(COc1ccc2ccc(=O)oc2c1)N/N=C1\C(=O)Nc2ccc(F)cc21

>  <log10 IC50>
1.08

$$$$
>  <smilesStructure>
O=C(COc1ccc2ccc(=O)oc2c1)N/N=C1\C(=O)N(Cc2cccc(F)c2)c2ccccc21

>  <log10 IC50>
0.97

$$$$

---

target: Alpha-glucosidase MAL32 (Saccharomyces cerevisiae (strain ATCC 204508 / S288c)); test: In Vitro α-Glucosidase Inhibitory Assay; conditions: pH 6.8
pIC50: −log10 of the molar value.
Each entry below carries its reported pIC50.
reportedEndpoint: pIC50

>  <smilesStructure>
Cc1ccc2c(c1)/C(=N/NC(=O)COc1ccc3ccc(=O)oc3c1)C(=O)N2Cc1cccc(F)c1

>  <targetOfAssay>
Alpha-glucosidase MAL32 (Saccharomyces cerevisiae (strain ATCC 204508 / S288c))

>  <endpointResult>
4.11

$$$$
>  <smilesStructure>
O=C(COc1ccc2ccc(=O)oc2c1)N/N=C1\C(=O)Nc2ccc(Br)cc21

>  <targetOfAssay>
Alpha-glucosidase MAL32 (Saccharomyces cerevisiae (strain ATCC 204508 / S288c))

>  <endpointResult>
4.85

$$$$
>  <smilesStructure>
O=C(COc1ccc2ccc(=O)oc2c1)N/N=C1\C(=O)Nc2ccccc21

>  <targetOfAssay>
Alpha-glucosidase MAL32 (Saccharomyces cerevisiae (strain ATCC 204508 / S288c))

>  <endpointResult>
3.73

$$$$
>  <smilesStructure>
Cc1cc(C)c2c(c1)/C(=N/NC(=O)COc1ccc3ccc(=O)oc3c1)C(=O)N2

>  <targetOfAssay>
Alpha-glucosidase MAL32 (Saccharomyces cerevisiae (strain ATCC 204508 / S288c))

>  <endpointResult>
3.70

$$$$
>  <smilesStructure>
Cc1ccc2c(c1)/C(=N/NC(=O)COc1ccc3ccc(=O)oc3c1)C(=O)N2Cc1ccccc1F

>  <targetOfAssay>
Alpha-glucosidase MAL32 (Saccharomyces cerevisiae (strain ATCC 204508 / S288c))

>  <endpointResult>
4.18

$$$$

---

target: Alpha-glucosidase MAL32 (Saccharomyces cerevisiae (strain ATCC 204508 / S288c), UniProt P38158); assay: In Vitro α-Glucosidase Inhibitory Assay; conditions: pH 6.8
pIC50: −log10 of the molar value.
Each entry below carries its reported pIC50.

>  <smilesStructure>
Cc1ccc2c(c1)/C(=N/NC(=O)COc1ccc3ccc(=O)oc3c1)C(=O)N2

>  <pIC50>
3.94

$$$$
>  <smilesStructure>
O=C(COc1ccc2ccc(=O)oc2c1)N/N=C1\C(=O)N(Cc2ccc(Br)cc2)c2ccc(Br)cc21

>  <pIC50>
5.40

$$$$
>  <smilesStructure>
O=C(COc1ccc2ccc(=O)oc2c1)N/N=C1\C(=O)N(Cc2ccccc2F)c2ccccc21

>  <pIC50>
5.13

$$$$
>  <smilesStructure>
O=C(COc1ccc2ccc(=O)oc2c1)N/N=C1\C(=O)Nc2ccc([N+](=O)[O-])cc21

>  <pIC50>
5.02

$$$$
>  <smilesStructure>
O=C(COc1ccc2ccc(=O)oc2c1)N/N=C1\C(=O)N(Cc2ccccc2)c2ccc(Br)cc21

>  <pIC50>
5.35

$$$$
>  <smilesStructure>
O=C(COc1ccc2ccc(=O)oc2c1)N/N=C1\C(=O)N(Cc2cccc(F)c2)c2ccc(Cl)cc21

>  <pIC50>
5.54

$$$$
>  <smilesStructure>
CN1C(=O)/C(=N\NC(=O)COc2ccc3ccc(=O)oc3c2)c2ccccc21

>  <pIC50>
3.57

$$$$
>  <smilesStructure>
O=C(COc1ccc2ccc(=O)oc2c1)N/N=C1\C(=O)N(Cc2ccccc2F)c2ccc(Cl)cc21

>  <pIC50>
5.59

$$$$
>  <smilesStructure>
O=C(COc1ccc2ccc(=O)oc2c1)N/N=C1\C(=O)N(Cc2ccc(Br)cc2)c2ccccc21

>  <pIC50>
5.39

$$$$
